Known normalized growth of a selection of compounds
Method summary: chemical genetic growth profiling, strain panel (AID 1159580);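 further: tested at 20 µM; growth read once vehicle control cultures reached saturation at 30 °C; 1 = growth at the plate median or of vehicle wells; lower values mean less growth of the strain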
Particulars: S. cerevisiae deletion strains, growth OD, locus YHR079C, strain IRE1 (second series), hits give low values
Out of some 5,500 compounds screened, about 2,000 (36%) were called active. Inconclusive results (about 18%) are left out. This is one part of the list.
The answer should be written as a number, with no unit following it.

These recorded examples may help you get a feel for the data.
Compound	Result value
COc1cc2c(cc1OC)C(=O)c1ccc(OC)c(OC)c1OCC(=O)C2	1
COC(=O)[C@@H]1OC(=O)C2OC23[C@@]1(C)CCC1[C@]2(C)C(C[C@H](O)[C@]13C)C(C)(C)[C@H](OC(C)=O)C[C@@H]2OC(C)=O (stereo partly specified)	1.01
CCC1(O)CC(OC2CC(N(C)C)C(OC3CC(O)C(OC4CCC(=O)C(C)O4)C(C)O3)C(C)O2)c2c(cc3c(c2O)C(=O)c2c(O)cccc2C3=O)C1C(=O)OC (stereo unspecified)	1.01
COc1ccc2c(c1)OC/C(=C/c1ccc(OC)c(OC)c1)C2=O	0.979
Cn1c(=O)c2c(ncn2CC(O)CO)n(C)c1=O (stereo unspecified)	0.968

Here's the next entry for you.
Request the reported normalized growth associated with `CCC[C@H](N[C@@H](C)C(=O)N1[C@H](C(=O)O)C[C@@H]2CCCC[C@@H]21)C(=O)OCC`
1.01

Data origin: PubChem BioAssay AID1159580
